Target: activated JNK3 (Homo sapiens, UniProt P53779)
Construct: One such construct encodes amino acid residues Ser40-Glu402 of JNK3α1 and is preceded by Met and Gly residues; Met-Gly (initiator methionine and added glycine) (N)
Sequence (P53779 40-402): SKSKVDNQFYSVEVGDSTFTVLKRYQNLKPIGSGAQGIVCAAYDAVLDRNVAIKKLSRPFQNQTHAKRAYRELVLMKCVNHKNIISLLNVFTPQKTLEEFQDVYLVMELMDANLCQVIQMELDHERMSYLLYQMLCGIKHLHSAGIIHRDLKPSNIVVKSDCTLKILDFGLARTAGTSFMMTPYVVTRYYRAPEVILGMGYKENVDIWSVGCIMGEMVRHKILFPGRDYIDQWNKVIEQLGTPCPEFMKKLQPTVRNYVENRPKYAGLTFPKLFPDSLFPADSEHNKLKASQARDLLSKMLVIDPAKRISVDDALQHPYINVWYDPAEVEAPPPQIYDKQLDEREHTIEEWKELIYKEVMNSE
Assay: JNK inhibition assay (spectrophotometric coupled-enzyme assay)
Details: 10 nM activated JNK3, 10 μM ATP; read-out: Activity in the JNK3 Inhibition Assay (Ki rating A-C)
pKi: −log10 of the molar value.
reported-endpoint: pKi

Entry COc1cc(-c2ccnc(Nc3ccc(F)cc3)n2)cc(OC)c1OC [Compound I-14] needs its pKi filled in; supply it.
< 6.00

Entry COc1cc(-c2ccnc(Nc3nnc(C)s3)n2)cc(OC)c1OC [Compound I-83] needs its pKi filled in; supply it.
< 6.00

Entry COc1cc(-c2ccnc(Nc3ccc(C)cc3)n2)cc2c1OCCO2 [Compound I-82] needs its pKi filled in; supply it.
> 7.00

Now let's try a different one.
Entry COc1cc(-c2ccnc(Nc3ccccc3)n2)cc2c1OCCO2 [Compound I-74] needs its pKi filled in; supply it.
> 7.00
